Assembled from different publications: pIC50 for Epidermal growth factor receptor (Homo sapiens, UniProt P00533).
As a rule, pIC50 stands for the negative log10 of the concentration, concentration in M.

# count of solved cases: 5
[ask] Give pIC50 (Epidermal growth factor receptor (Homo sapiens, UniProt P00533)) of the following molecule: Cc1cc(Nc2nc(Nc3cccc4c3N(S(C)(=O)=O)CC4)c3cc[nH]c3n2)ccc1N1CCC(N2CCN(C)CC2)CC1
[reply] 7.40

[ask] Epidermal growth factor receptor (Homo sapiens, UniProt P00533) / pIC50 / COc1cc(Nc2ncc(Br)c(Nc3ccc4nc(C5CC5)ccc4c3P(C)(C)=O)n2)cc(C)c1N1CCC(N2CCN(C)CC2)CC1 : value?
[reply] 7.38

[ask] Any idea what pIC50 came out for N#Cc1ccc(Nc2nc3ncnc(Nc4cccc(Cl)c4)c3s2)cc1 on Epidermal growth factor receptor (Homo sapiens, UniProt P00533)?
[reply] 7.59

[ask] # get_value(readout= pIC50, system= Epidermal growth factor receptor (Homo sapiens, UniProt P00533)) for C#Cc1cccc(Nc2ncnc3nc(Nc4ccc(CNCC(O)CO)cc4)sc23)c1 (stereo not drawn)
[reply] 8.14

[ask] Query the reported pIC50 for Epidermal growth factor receptor (Homo sapiens, UniProt P00533); item: Cc1cc(Oc2cccc(O)c2C=O)cc(C(=O)/N=c2\[nH]c3ccc(CN4CCN(C)CC4)cc3n2CC(C)(C)O)c1
[reply] 7.75

Continuing:
[ask] Give pIC50 (Epidermal growth factor receptor (Homo sapiens, UniProt P00533)) of the following molecule: COc1ccc(NC(=O)/C=C/CN(C)C)cc1Nc1ncc(Br)c(Nc2ccc3ccccc3c2)n1
[reply] 6.60

[ask] Lab request: please report pIC50 under test system Epidermal growth factor receptor (Homo sapiens, UniProt P00533) for C#Cc1ccc2c(P(C)(C)=O)c(Nc3nc(Nc4cc(C)c(N5CCC(N6CCN(C)CC6)CC5)cc4OC)ncc3Br)ccc2n1
[reply] 7.94

###

For reference, the following IC50 results for Epidermal growth factor receptor (Homo sapiens, UniProt P00533) were taken from various sources.

As a guide, the following entries are already answered.
[ask] Hi! What's the reported IC50 for COCCN(C)C/C=C/C(=O)N(C)c1cccc(-n2c(=O)n(-c3ccc(Oc4ccccc4)cc3)c3c(N)ncnc32)c1 on Epidermal growth factor receptor (Homo sapiens, UniProt P00533)?
[reply] 100 to 1000 nM

[ask] Form field - read-out: IC50; system: Epidermal growth factor receptor (Homo sapiens, UniProt P00533); submitted item: Cc1ccc(Oc2ccc(Nc3ncnc4sc5c(c34)CCN(C(=O)/C=C/CN3CC[C@H](CO)C3)C5)cc2C)cn1
[reply] > 10000 nM

[ask] Please tell me: IC50 of Cc1nn([C@H]2COC[C@@H]2O)c2c1/C=C/c1n[nH]c3ccc(cc13)-c1cnn(C)c1OCCCO2 (single isomer, unassigned) , system Epidermal growth factor receptor (Homo sapiens, UniProt P00533)?
[reply] 538 nM

[ask] Give the reported IC50 for C=CC(=O)Nc1cc(-c2c(-c3ccc(N4CCN(C)CC4)cc3)[nH]c3ncc(C(=O)NCc4nc5ccccc5[nH]4)cc23)ccc1C (system: Epidermal growth factor receptor (Homo sapiens, UniProt P00533)).
[reply] ≤ 100 nM

[ask] Request - read-out IC50 | tested on Epidermal growth factor receptor (Homo sapiens, UniProt P00533) | compound CC#CC(=O)N1CCC[C@@H](n2nc(-c3ccc(C(=O)Nc4nccs4)cc3)c3c(N)ncnc32)C1
[reply] 10 to 100 nM

[ask] API: value(readout=IC50, system=Epidermal growth factor receptor (Homo sapiens, UniProt P00533)) for record C=CC(=O)Nc1cccc(Nc2cc(N3CCc4ccccc43)ncn2)c1
[reply] ≤ 10 nM

[ask] Please state recorded IC50 (tested on Epidermal growth factor receptor (Homo sapiens, UniProt P00533)) of C=C(C)C(=O)c1cccc(Nc2cc(Nc3ccc(Oc4ccccc4)cc3)ncn2)c1
[reply] ≤ 10 nM

[ask] Please state recorded IC50 (tested on Epidermal growth factor receptor (Homo sapiens, UniProt P00533)) of O=C(Nc1ccc(-c2cc(-c3nc4ccccc4[nH]3)n[nH]2)cc1)Nc1cc(C(F)(F)F)ccc1F
[reply] > 5000 nM

[ask] Query the reported IC50 for Epidermal growth factor receptor (Homo sapiens, UniProt P00533); item: C=CC(=O)Nc1cccc(N2C(=O)N(C)Cc3cnc(Nc4ccc(N5CCCN(C)CC5)cc4OC)nc32)c1
[reply] ≤ 10 nM

[ask] Record lookup: for Epidermal growth factor receptor (Homo sapiens, UniProt P00533), what IC50 belongs to COCCOc1cc2ncnc(Nc3cccc(OC)c3)c2c2c1OCCO2 ?
[reply] < 200 nM

Here is another compound to look at.
[ask] Form entry - test system: Epidermal growth factor receptor (Homo sapiens, UniProt P00533); read-out: IC50; compound: C=CC(=O)N1CCC[C@@H](Nc2n[nH]c3nccc(Oc4ccc(C(=O)Nc5cc(C)n(C)n5)cc4)c23)C1
[reply] 1000 to 10000 nM
